Form field: pKi (one value per entry).
Molecular target: T1, αvβ8 integrin (UniProt P06756 31-992; P26012 43-684, limits assumed)
T1 construct: Coated on microtiter plates
T1 sequence (P06756 31-992 limits assumed, chain 1 of 2): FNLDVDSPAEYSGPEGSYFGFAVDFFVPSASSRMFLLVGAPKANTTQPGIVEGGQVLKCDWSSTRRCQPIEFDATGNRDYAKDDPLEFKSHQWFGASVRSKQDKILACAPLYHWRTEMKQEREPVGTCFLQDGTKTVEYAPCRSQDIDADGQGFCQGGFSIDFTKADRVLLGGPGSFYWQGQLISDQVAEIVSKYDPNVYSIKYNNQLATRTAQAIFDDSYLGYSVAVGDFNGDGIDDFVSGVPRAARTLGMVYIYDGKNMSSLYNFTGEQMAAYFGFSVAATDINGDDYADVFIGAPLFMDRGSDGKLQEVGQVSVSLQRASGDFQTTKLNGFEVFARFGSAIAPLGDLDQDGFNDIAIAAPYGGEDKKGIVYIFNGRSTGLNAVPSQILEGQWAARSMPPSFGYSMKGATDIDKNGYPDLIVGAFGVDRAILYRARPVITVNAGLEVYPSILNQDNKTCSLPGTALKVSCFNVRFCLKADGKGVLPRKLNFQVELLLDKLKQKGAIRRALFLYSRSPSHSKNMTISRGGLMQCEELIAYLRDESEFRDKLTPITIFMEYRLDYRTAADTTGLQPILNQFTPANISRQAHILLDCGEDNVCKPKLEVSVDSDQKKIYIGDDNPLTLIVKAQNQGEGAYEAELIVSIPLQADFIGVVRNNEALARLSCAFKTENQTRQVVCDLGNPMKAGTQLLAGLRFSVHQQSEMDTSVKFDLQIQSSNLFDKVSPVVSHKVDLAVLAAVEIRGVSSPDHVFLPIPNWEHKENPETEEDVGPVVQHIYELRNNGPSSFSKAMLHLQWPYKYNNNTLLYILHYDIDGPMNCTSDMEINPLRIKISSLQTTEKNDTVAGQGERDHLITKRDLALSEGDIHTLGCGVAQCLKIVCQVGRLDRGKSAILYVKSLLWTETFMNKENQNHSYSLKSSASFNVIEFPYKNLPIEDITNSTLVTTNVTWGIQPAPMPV
T1 sequence (P26012 43-684 limits assumed, chain 2 of 2): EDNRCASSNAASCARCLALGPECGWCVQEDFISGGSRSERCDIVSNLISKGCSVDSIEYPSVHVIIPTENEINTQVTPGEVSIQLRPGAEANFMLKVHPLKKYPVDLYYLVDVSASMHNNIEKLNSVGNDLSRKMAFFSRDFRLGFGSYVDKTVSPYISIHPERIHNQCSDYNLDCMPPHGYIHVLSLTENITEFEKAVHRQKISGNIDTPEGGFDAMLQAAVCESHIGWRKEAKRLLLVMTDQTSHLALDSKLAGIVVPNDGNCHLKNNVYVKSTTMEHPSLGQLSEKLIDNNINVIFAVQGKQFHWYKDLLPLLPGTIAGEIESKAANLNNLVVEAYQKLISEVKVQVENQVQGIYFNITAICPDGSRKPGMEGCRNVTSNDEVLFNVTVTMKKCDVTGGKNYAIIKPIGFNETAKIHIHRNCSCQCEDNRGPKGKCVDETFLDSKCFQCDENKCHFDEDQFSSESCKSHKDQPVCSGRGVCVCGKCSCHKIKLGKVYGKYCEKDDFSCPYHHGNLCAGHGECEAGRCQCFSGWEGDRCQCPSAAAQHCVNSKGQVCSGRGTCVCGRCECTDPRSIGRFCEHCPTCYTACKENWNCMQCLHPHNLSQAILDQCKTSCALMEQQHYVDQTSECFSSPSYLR
Assay: competitive binding assay, integrin-coated plates; competitor probe acetyl-CisoDGRCG/streptavidin-peroxidase
pKi: −log10 of the molar value. Starred links: 1 amine or outer side, 2 acyl side, 3 side chain; linkers in the order of their positions; H or OH if unused. Positions of bridges follow the written chain, without caps; N, C: chain ends. Non-standard residues stand in square brackets, D forms with d. No end group written: not given here. βAsp = O=C(O)[C@H](CC(=O)[*:2])N[*:1]

| binder | readoutQualifier | pKi |
| --- | --- | --- |
| SC[βAsp]GRCGVRY (disulfide 2-6) [SCisoDGRCGVRY peptide] | = | 6.81 |
| C[βAsp]GRCGVRY (disulfide 1-5) [CisoDGRCGVRY peptide] | = | 6.26 |
| SCDGRCGVRY [SCDGRCGVRY peptide] | = | 4.67 |
| SCNGRCGVRY (disulfide 2-6, Synthetic peptide corresponding to the N-terminal region of human S-NGR-TNF) [SCNGRCGVRY peptide] | < | 5.00 |
| Ac-C[βAsp]GRCGVRY (disulfide 1-5) [acetyl-CisoDGRCGVRY peptide] | = | 7.74 |
